Assay: yeast display, Sf9 membrane polyspecificity reagent, FACS + sequencing; frameworks hold sequencing errors
Measure name: polyreactivity (PSR sort gate)

# annotated cases, reported polyreactivity (PSR sort gate) shown
Seq text	Result
QVQLVESGGGLVQAGGSLRLSCAASGRTFVGYVMGWYRQAPGKERELVASITYTGTSTYYADSVKGRFTISRDNAKNTVYLQMNSLKPEDTAVYYCAAQYYLYRRGYIWKYDYWGQGTQVTVSS	high polyreactivity
QVQLVESGGGLVQAGGSLRLSCAASGSTFAFYAMGWYRQAPGKERELVAAISRSGGRTYYADSVKGRFTISRDNAKNTVYLQMNSLKPEDTAVYYFAAPSSITTGPHREYDYWGQGTQVTVSS	high polyreactivity
QVQLVESGGGLVQAGGSLRLSCAASGRTFLVYAMGWYRQAPGKERELVAAITYSDGSTYYADSVKGRFTISRDNAKNTVYLQMNSLKPEDTAVYFCAADSSTFPSDYYWGKGTQVTVSS	low polyreactivity
QVQLVESGGGLVQAGGSLRLSCAASGRTFGLYAMGWYRQAPGKERELVAAISWGGGRTYYADSVKGRFTISRDNAKNTVYLLMNSLKPEDTAVYYCNALYATYYLGYDYWGQGTQVTVSS	high polyreactivity

Exercise: Suppose we examine the sequence `QVQLVESGGGLVQAGGSLRLSCAASGSTLYYYVMGWYRQAPGKERELVAAISSSGDSTYYADSVKGRFTISRDNAKNTVYLQMTSLKPEDTAVYYCNAGWYFYGETTDDYWGQGTQVTVSS` ; what polyreactivity (PSR sort gate) value has been reported?
Solution: low polyreactivity

----------
Test: yeast display, Sf9 membrane polyspecificity reagent, FACS + sequencing; frameworks hold sequencing errors
Measure name: polyreactivity (PSR sort gate)

Seq text	polyreactivity (PSR sort gate)
QVQLVESGGGVVQAGGSLRFSCAASGSIFPGYAMGWYRQAPGKEREMVATITWSGGTTYYADSVKGRFTISRDYAKNTVYFQMNSLKPEDTAVYYCNATFGYPFLDYDDYWGQGTQVNVSS	low polyreactivity
QVQLVESGGGLVQAGGSLRLSCAASGRIFAYNAMGWYRPAPGKERELVADISSGGNTYYADSVKGRFTISRDNAKNTVYLQMNSLKPEDTAVYYCAADIAWYTHYHRIFDYWGQGTQVTVSS	low polyreactivity
QVQLVESGGGLVQAGGTLRLSCAASGRIFTHNAMGWYRQAPGKERELVAAITSGGRTTYADSVKGRFTISRDNAKNTVYLQMNSLKPEDTAVYYCNADTGLGSLDFDKRDYWGQGTQVNVSS	low polyreactivity
QLQLVESCGGLVQAGGSLRLSCAASGSILLNNAMGWYRQAPGKERELVAAISLSGGGSTYYADSVKGRFTLSRDNAKNTVYLQMNSLIPEDTAVYYCNADDPYLYYDSYDYWGQGTQVTVSS	low polyreactivity
QVHLVESGGGLVQAGGSLRLSSAASGSTFVFNAMAWYRQAPGKESELVAGISWSGGSTYYADSVKGRFTISRDNSKNTVYLQMKSLKPEDTAVYYCAVDGYFWGYYERDYSGQGTQVTVSS	low polyreactivity
QVQLVEAVGGLVQAGGSLRLSCAASGNTYYGNAMGWYRQAPGKEREFVAAITIRTGSTYYADSVKGRFTISRDNAKNTVYLQMNSLKPDDTAVYYCAADAYWRWNWYDYWGQGTQVTVSS	high polyreactivity

Below are 5 sequences. Give each one its polyreactivity (PSR sort gate).
1. QVQLVESGGGLVQAGGSLRLSCAASGSIFAYYAMGWYRQAPGKERELVASISSVGTTKYADSVKGRFTISRDNAKNTVYLQMNSLKPEDTAVYYWATDGYSPAAFDYWGQGTQVTVSS
2. QVQLVESGGGLVQAGGSLRLSCAASGSTFTYNAMGWYRQAPGKERELVASISSGTTTYYADSVKGRFTISRDNAKNTVYLQMNSLKPDDTAVYYCNADIYTWFQIGGYQYDYWGQGTQVTVSS
3. QVQLVESGGGLVQAGGSLRLSCAASGSIFVYYAMGWYRQAPGKERELVATIRGSGGSTYYADSVKGRFTISRDNAKNTVYLQMNSLKPEDTAVYYCAATIKYGGRWYGSWGQGTQVTVSS
4. QVQLVETGGGLVQAGGSLRLSCAASGRTFVGNAKGWYRPAPGQERELVADITWSGDITYYADSVKGRFTISRDHAKNSVYLQMNSLKPEDTAVYYCAADYHRRRTDYDYWGQGTQVTVSS
5. QVQLVESGGGLVQAGGSLRLSSAASGRNFSRYAMGWYRQAPGKERELVAAINKSGGSTYYADSVKGRFTISRDNAKNTVYLQMNSLKPEDSAFYYCNAVYYWYKGDYWGQGSQVTVSS

Solution:
1: low polyreactivity; 2: low polyreactivity; 3: high polyreactivity; 4: low polyreactivity; 5: high polyreactivity
